# SYSTEM: HDAC1 (Homo sapiens)
# Construct: HDAC1 (full length, C-terminal His tag, C-terminal FLAG tag, BPS Bioscience, cat. #: 50051); FLAG (C); purchased BPS Bioscience 50051
# Sequence (Q13547 whole entry): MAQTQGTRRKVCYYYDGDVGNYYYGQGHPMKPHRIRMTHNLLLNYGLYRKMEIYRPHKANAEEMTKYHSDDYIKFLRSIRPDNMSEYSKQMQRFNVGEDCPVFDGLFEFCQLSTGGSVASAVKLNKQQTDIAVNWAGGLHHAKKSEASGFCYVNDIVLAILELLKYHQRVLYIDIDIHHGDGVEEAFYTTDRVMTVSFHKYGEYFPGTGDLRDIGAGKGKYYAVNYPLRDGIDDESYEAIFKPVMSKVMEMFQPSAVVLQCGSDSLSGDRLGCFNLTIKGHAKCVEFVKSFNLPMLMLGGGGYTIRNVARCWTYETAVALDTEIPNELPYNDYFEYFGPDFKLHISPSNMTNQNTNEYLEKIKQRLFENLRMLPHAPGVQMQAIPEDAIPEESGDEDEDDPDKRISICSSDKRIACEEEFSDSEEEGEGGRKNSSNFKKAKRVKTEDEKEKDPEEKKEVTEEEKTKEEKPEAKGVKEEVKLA
# PROTOCOL TEXT: Recombinant HDAC µSPOT microarray binding assay;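 further: relative spot intensity from the six enzyme-concentration slides imaged together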;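 further: slides with spotted peptides incubated with six HDAC concentrations in HEPES buffer pH 7.4, spot intensities fitted by four-parameter logistic, EC50 as enzyme concentration giving half-maximal binding signal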
# RECORDED CONDITIONS: µSPOT microarray, recombinant HDAC1, Fig. 3; X = Asuha; fitted top plateau of the binding curve
REPORTED ENDPOINT: Top (dose-response fit)

>>> data_value("H2B 58-73 (AMGIMNSFVNDIFERI; UniProt P06899 59-74, looked up, fragment)")
1.87
>>> data_value("H2B 91-106 (SREIQTAVRLLLPGEL; UniProt P62807 92-107, looked up, fragment)")
1.07
>>> data_value("H2A 40-55 (AERVGAGAPVYLAAVL; UniProt P0C0S8 41-56, looked up, fragment)")
5.13
>>> data_value("H2A 49-64 (VYLAAVLEYLTAEILE; UniProt P0C0S8 50-65, looked up, fragment)")
0.2

I. H2A 55-70 (LEYLTAEILELAGNAA; UniProt P0C0S8 56-71, looked up, fragment)
II. H2B 64-79 (SFVNDIFERIAGEASR; UniProt P62807 65-80, looked up, fragment)
III. H2A 37-52 (GNYSERVGAGAPVYLA; UniProt P04908 38-53, looked up, fragment)
IV. H2A 79-94 (IPRHLQLAIRNDEELN; UniProt P0C0S8 80-95, looked up, fragment)
V. H2A 19-34 (SRAGLQFPVGRVHRLL; UniProt P04908 20-35, looked up, fragment)
Exercise: Please order the records by their reported Top (dose-response fit), lowest number first. Please list each label once, in the requested order.
Solution: I, II, V, III, IV
(I: 0.27, II: 1.21, V: 2.31, III: 6.54, IV: 19.1)

a. H2A 46-61 (GAPVYLAAVLEYLTAE; UniProt P0C0S8 47-62, looked up, fragment)
b. H2B 67-82 (NDIFERIAGEASRLAH; UniProt P06899 68-83, looked up, fragment)
Exercise: // returns a or b , whichever has the lower Top (dose-response fit) Indicate your choice by writing its label.
Solution: a
(a: 0.24, b: 1.04)

I. H2B 61-76 (IMNSFVNDIFERIAGE; UniProt P62807 62-77, looked up, fragment)
II. H2A 100-115 (VTIAQGGVLPNIQAVL; UniProt P0C0S8 101-116, looked up, fragment)
Exercise: Which one would you say has the larger Top (dose-response fit) value: I , or II ? State your choice using its label.
Solution: I

These entries and their values trace back to paper PMC7782793.
